tested on: HT29 RAMS11 overexpressing cells; assay: High-throughput viability assay (resazurin), 119 FDA-approved anticancer drugs, RAMS11 overexpressing cells (Clone1, Clone2); details: OE1 (RAMS11 overexpression clone 1), 0.1 uM drug, 72 h, vs empty vector control
Property name: Viability Fold Change

Viability Fold Change reported for this molecule Nc1ncn([C@@H]2O[C@H](CO)[C@@H](O)[C@H]2O)c(=O)n1 : 1.05

Viability Fold Change reported for this molecule Nc1nc(Cl)nc2c1ncn2[C@@H]1O[C@H](CO)[C@@H](O)[C@@H]1F : 0.9141

Viability Fold Change reported for this molecule c1cc(CN2CCCNCCNCCCNCC2)ccc1CN1CCCNCCNCCCNCC1 : 0.9866

Viability Fold Change reported for this molecule CC(=O)O[C@]1(C(C)=O)CC[C@H]2[C@@H]3C=C(C)C4=CC(=O)CC[C@]4(C)[C@H]3CC[C@@]21C [Megestrol acetate] : 0.8922

Viability Fold Change reported for this molecule C[C@@H](Oc1cc(-c2cnn(C3CCNCC3)c2)cnc1N)c1c(Cl)ccc(F)c1Cl : 0.9595

Viability Fold Change reported for this molecule CC(C)C[C@H](NC(=O)[C@H](Cc1ccccc1)NC(=O)c1cnccn1)B(O)O : 0.6015

Viability Fold Change reported for this molecule CC(=O)O[C@@]12CO[C@@H]1C[C@H](O)[C@@]1(C)C(=O)[C@H](O)C3=C(C)[C@@H](OC(=O)[C@H](O)[C@@H](NC(=O)OC(C)(C)C)c4ccccc4)C[C@@](O)([C@@H](OC(=O)c4ccccc4)[C@H]21)C3(C)C : 2.831
